meta.source: PubChem BioAssay AID1209

assayed.system: Mannose-6-phosphate isomerase (Homo sapiens)
procedure.text: inhibitors of human PMI, primary screen, biochemical, fluorescence intensity, coupled assay (AID 1209)
experimental.conditions: purified PMI enzyme, at 20 µM
Out of some 190,000 compounds screened, about 810 (0.43%) were called active. No stated cut-off is given here; in the data, active means inhibition above about 50%; inactive means the rest. The full list was thinned out, with actives kept by preference.
Pick one: True (active), False (inactive)

Request: Outcome? C=CCN1C(=O)S/C(=C/c2ccc(Sc3nc4ccccc4[nH]3)o2)C1=O
Response: False

Request: Outcome? CC(Sc1nncn1C)C(=O)Nc1nnc(-c2ccccc2)s1 (stereo unspecified)
Response: False

Request: Outcome? Cc1ccc(Oc2ccc(NC(=O)c3ccco3)cc2)cc1
Response: False

Request: Outcome? Cc1ccc(-c2nnc(-c3ccc(NC(=O)c4ccco4)cc3)o2)cc1
Response: True

Request: Outcome? CC(NC(=O)c1ccc2c(c1)OCCO2)C(=O)O (stereo unspecified)
Response: False

Request: Outcome? Cc1cc(NCCCN2CCOCC2)n2nc(C)c(-c3ccccc3)c2n1
Response: False

Request: Outcome? CC(C)N1C(=O)S/C(=C/c2ccc(Sc3nc4ccccc4[nH]3)o2)C1=O
Response: False

Request: Outcome? COC(=O)c1ccc(COC(=O)C23CC4CC(CC(O)(C4)C2)C3)o1
Response: False

Request: Outcome? O=C(NCCO)C1CCN(S(=O)(=O)c2ccc(F)cc2)CC1
Response: False

Request: Outcome? CC(C)(C)NC(=O)NC(=O)Cn1ccsc1=N
Response: False

Request: Outcome? O=C(/C=C/c1ccc(Cl)cc1)NC(=S)Nc1ccc(CN2CCOCC2)cc1
Response: False
